Provenance of the data: patent US20240182495A1

test: Chemical stability testing in DMSO, ACN/H2O, ACN/0.1N HCl, ACN/0.1N NaOH (% by LCMS); format: physicochemical; conditions: 72 h, 30 µM
endpoint: chemical stability (% by LCMS) (%)
Just the number in %, nothing appended.

CCc1nc2cc(OC)c(Cl)cn2c1C(=O)NCc1ccc(-c2nc3n(n2)CCN(S(=O)(=O)C(F)(F)F)C3)c(F)c1 | 97.03
CCc1nc2ccc(Cl)cn2c1C(=O)NCc1cnc(-c2nc3n(n2)CCN(S(=O)(=O)C(F)(F)F)C3)c(F)c1 | 97.03

### Prompt Which chemical stability (% by LCMS) is reported for this molecule? CCc1nc2cc(N)c(Cl)cn2c1C(=O)NCc1ccc(-c2nc3n(n2)CCN(S(=O)(=O)C(F)(F)F)C3)c(F)c1
### Response 100

### Prompt Which chemical stability (% by LCMS) is reported for this molecule? CCc1nc2ncc(Cl)cn2c1C(=O)NCc1ccc(-c2nc3n(n2)CCN(S(=O)(=O)C(F)(F)F)C3)cc1
### Response 100

### Prompt Which chemical stability (% by LCMS) is reported for this molecule? CCc1nc2nc(N)c(Cl)cn2c1C(=O)NCc1ccc(-c2nc3n(n2)CCN(S(=O)(=O)C(F)(F)F)C3)c(F)c1
### Response 96.14

### Prompt Which chemical stability (% by LCMS) is reported for this molecule? CCc1nc2ncc(C)cn2c1C(=O)NCc1ccc(-c2nc3n(n2)CCN(S(=O)(=O)C(F)(F)F)C3)c(F)c1
### Response 100
